The reported numbers originate from ChEMBL document CHEMBL4418278.

Target: Serine racemase (Homo sapiens) (UniProt Q9GZT4)
Sequence (whole entry): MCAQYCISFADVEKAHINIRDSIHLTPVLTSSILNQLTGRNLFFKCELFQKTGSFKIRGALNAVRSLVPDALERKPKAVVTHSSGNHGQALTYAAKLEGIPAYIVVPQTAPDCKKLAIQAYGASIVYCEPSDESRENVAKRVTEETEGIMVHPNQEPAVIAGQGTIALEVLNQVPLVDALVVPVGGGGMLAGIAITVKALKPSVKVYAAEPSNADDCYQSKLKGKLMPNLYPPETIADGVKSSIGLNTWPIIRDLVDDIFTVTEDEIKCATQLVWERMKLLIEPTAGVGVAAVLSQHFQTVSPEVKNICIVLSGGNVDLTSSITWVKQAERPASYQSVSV
Test: Inhibition of recombinant human SRR expressed in Escherichia coli assessed as reduction in conversion of L-serine to D-serine at 1 mM incubated for => 8 hrs in presence of PLP and recombinant D-serine dehydratase 1 by spectrophotometry relative to control
parameter measured: inhibition

Request: # return recorded inhibition for input Cc1ccc(S(=O)(=O)NCCNC(=O)Nc2ccc(Cl)cc2Cl)cc1
Result: 59%

Request: Let me know recorded inhibition for O=C(/C=C/c1c(Cl)cc(Cl)cc1Cl)NC(=S)NNC(=O)Cc1cccs1 , thanks.
Result: 33%

Request: Given the compound O=C(NCCNS(=O)(=O)c1ccc(Br)cc1)Nc1ccc(Cl)c(Cl)c1 , write its reported inhibition.
Result: 49%

Request: For the compound O=C(/C=C/c1cc(Br)cc(Br)c1)NC(=S)NNC(=O)Cc1ccccc1 , report inhibition.
Result: 20%

Request: Identify measured inhibition associated with COc1ccc(S(=O)(=O)NCCNC(=O)Nc2ccc(Cl)c(Cl)c2)cc1
Result: 61%

Request: # return recorded inhibition for entry O=C(Cc1cccs1)NNC(=S)NC(=O)Cc1ccccc1
Result: 61%

Request: Annotate the compound O=C(Cc1ccc(F)cc1)NNC(=S)NC(=O)Cc1ccccc1 with its measured inhibition.
Result: 0%

Request: Tell me measured inhibition for O=C(/C=C/c1ccc(-c2ccccc2)cc1)NC(=S)NNC(=O)Cc1cccs1 please.
Result: 55%

Request: Respond only with inhibition recorded for O=C(Cc1c(F)cccc1F)NNC(=S)NC(=O)Cc1ccccc1
Result: 74%

Request: Tell me inhibition reported for O=C(O)CC(=O)O
Result: 54 to 85%

Request: Using the record for O=C(/C=C/c1ccc(F)cc1)NC(=S)NNC(=O)c1cccs1 , state its measured inhibition.
Result: 46%

Request: Return reported inhibition. Input compound: O=C(Cc1ccccc1)NNC(=S)NC(=O)Cc1ccccc1
Result: 41%

Request: // fetch inhibition given entry COc1ccccc1NC(=S)NCCNS(=O)(=O)c1ccc(C)cc1
Result: 76%

Request: Read off the recorded inhibition for O=C(/C=C/c1c(F)cc(F)cc1F)NC(=S)NNC(=O)Cc1ccccc1
Result: 33%

Request: // fetch inhibition given entry COc1cccc(OC)c1/C=C/C(=O)NC(=S)NNC(=O)Cc1ccccc1
Result: 24%

Request: Indicate its recorded inhibition; the compound in question is O=C(/C=C/c1cc(Br)cc(Br)c1)NC(=S)NNC(=O)Cc1ccc(F)cc1
Result: 49%

Request: Entry O=C(/C=C/c1ccc([N+](=O)[O-])cc1)NC(=S)NNC(=O)Cc1cccs1 needs its inhibition filled in; supply it.
Result: 35%

Request: Given the compound COc1cccc(CC(=O)NNC(=S)NC(=O)/C=C/c2cc(Br)cc(Br)c2)c1 , write its reported inhibition.
Result: 31%

Request: Answer with reported inhibition of Cc1ccc(S(=O)(=O)NCCNC(=S)Nc2ccccc2Cl)cc1
Result: 69%

Request: Respond only with inhibition recorded for Cc1ccc(S(=O)(=O)NCCNC(=O)Nc2ccccc2)cc1
Result: 79%

Request: Please give the documented inhibition of O=C(CCc1ccccc1)NNC(=S)NC(=O)Cc1ccccc1
Result: 70%

Request: Read the entry O=C(Cc1cc(F)cc(F)c1)NNC(=S)NC(=O)Cc1ccccc1 and write its reported inhibition.
Result: 67%

Request: Return value of inhibition for input O=C(/C=C/c1cc(Br)cc(Br)c1)NC(=S)NNC(=O)c1cccs1 , no commentary.
Result: 52%

Request: Read off the recorded inhibition for O=C(/C=C/c1ccc(C(F)(F)F)cc1)NC(=S)NNC(=O)Cc1cccs1
Result: 44%

Request: For the compound O=C(COc1ccc(Br)cc1)NCC(=O)NC1CCCCC1 , give its measured inhibition value.
Result: 53%

Request: Return inhibition (reported value) for this compound: O=C(/C=C/c1cc(Br)cc(Br)c1)NC(=S)NNC(=O)c1ccccc1
Result: 31%

Request: Determine its reported inhibition: COc1cccc(NC(=O)NCCNS(=O)(=O)c2ccc(C)cc2)c1
Result: 64%

Request: Query inhibition for Cc1ccc(S(=O)(=O)NCCNC(=S)Nc2ccccc2C)cc1
Result: 58%

Request: Item O=C(/C=C/c1ccc(F)cc1)NC(=S)NNC(=O)Cc1ccccc1 : provide inhibition
Result: 45%

Request: Give recorded inhibition. O=C(/C=C/c1cc(Br)cc(Br)c1)NC(=S)NNC(=O)Cc1cccs1
Result: 28%

Request: Hello, please tell me recorded inhibition for this one: Cc1ccc(S(=O)(=O)NCCNC(=O)Nc2ccc(Br)cc2Cl)cc1
Result: 57%

Request: Note down inhibition recorded for O=C(/C=C/c1cc(Br)cc(Br)c1)NC(=S)NNC(=O)CCc1ccccc1
Result: 31%

Request: # return recorded inhibition for entry COCCCNC(=S)NCCNS(=O)(=O)c1ccc(C)cc1
Result: 86%

Request: Answer with the recorded inhibition for the compound listed here: Cc1cccc(CC(=O)NNC(=S)NC(=O)/C=C/c2cc(Br)cc(Br)c2)c1
Result: 24%

Request: Query inhibition for COc1ccc(S(=O)(=O)NCCCNC(=O)Nc2ccc(Cl)c(Cl)c2)cc1
Result: 55%

Request: Respond only with inhibition recorded for Cc1ccc(S(=O)(=O)NCCNC(=O)Nc2ccc(F)cc2)cc1
Result: 76%

Request: Consider the compound COc1ccc(C)cc1NC(=S)NCCNS(=O)(=O)c1ccc(C)cc1 and give its recorded inhibition.
Result: 63%

Request: Give the value of inhibition reported for the following: Cc1ccc(S(=O)(=O)NCCNC(=O)NS(=O)(=O)c2ccccc2C)cc1
Result: 62%

Request: For the compound Cc1ccc(S(=O)(=O)NCCNC(=O)Nc2ccc(Cl)c(Cl)c2)cc1 , give its reported inhibition.
Result: 52%

Request: Indicate its recorded inhibition; the compound in question is Cc1cccc(CC(=O)NNC(=S)NC(=O)Cc2ccccc2)c1
Result: 45%

Request: Note down inhibition recorded for O=C(/C=C/c1ccc(Cl)cc1)NC(=S)NNC(=O)Cc1cccs1
Result: 23%

Request: Please look at this compound and report its inhibition: COc1ccc(NC(=O)CNC(=O)COc2ccccc2)c(C)c1
Result: 62%

Request: Return inhibition for the following compound: COc1cccc(OC)c1/C=C/C(=O)NC(=S)NNC(=O)c1cccs1
Result: 31%

Request: Please indicate inhibition recorded for O=C(NCCCNS(=O)(=O)c1ccc(Br)cc1)Nc1ccc(Cl)c(Cl)c1
Result: 55%
